# TARGET_OR_SYSTEM: ABL (Homo sapiens, UniProt P00519)
# Sequence (P00519 whole entry): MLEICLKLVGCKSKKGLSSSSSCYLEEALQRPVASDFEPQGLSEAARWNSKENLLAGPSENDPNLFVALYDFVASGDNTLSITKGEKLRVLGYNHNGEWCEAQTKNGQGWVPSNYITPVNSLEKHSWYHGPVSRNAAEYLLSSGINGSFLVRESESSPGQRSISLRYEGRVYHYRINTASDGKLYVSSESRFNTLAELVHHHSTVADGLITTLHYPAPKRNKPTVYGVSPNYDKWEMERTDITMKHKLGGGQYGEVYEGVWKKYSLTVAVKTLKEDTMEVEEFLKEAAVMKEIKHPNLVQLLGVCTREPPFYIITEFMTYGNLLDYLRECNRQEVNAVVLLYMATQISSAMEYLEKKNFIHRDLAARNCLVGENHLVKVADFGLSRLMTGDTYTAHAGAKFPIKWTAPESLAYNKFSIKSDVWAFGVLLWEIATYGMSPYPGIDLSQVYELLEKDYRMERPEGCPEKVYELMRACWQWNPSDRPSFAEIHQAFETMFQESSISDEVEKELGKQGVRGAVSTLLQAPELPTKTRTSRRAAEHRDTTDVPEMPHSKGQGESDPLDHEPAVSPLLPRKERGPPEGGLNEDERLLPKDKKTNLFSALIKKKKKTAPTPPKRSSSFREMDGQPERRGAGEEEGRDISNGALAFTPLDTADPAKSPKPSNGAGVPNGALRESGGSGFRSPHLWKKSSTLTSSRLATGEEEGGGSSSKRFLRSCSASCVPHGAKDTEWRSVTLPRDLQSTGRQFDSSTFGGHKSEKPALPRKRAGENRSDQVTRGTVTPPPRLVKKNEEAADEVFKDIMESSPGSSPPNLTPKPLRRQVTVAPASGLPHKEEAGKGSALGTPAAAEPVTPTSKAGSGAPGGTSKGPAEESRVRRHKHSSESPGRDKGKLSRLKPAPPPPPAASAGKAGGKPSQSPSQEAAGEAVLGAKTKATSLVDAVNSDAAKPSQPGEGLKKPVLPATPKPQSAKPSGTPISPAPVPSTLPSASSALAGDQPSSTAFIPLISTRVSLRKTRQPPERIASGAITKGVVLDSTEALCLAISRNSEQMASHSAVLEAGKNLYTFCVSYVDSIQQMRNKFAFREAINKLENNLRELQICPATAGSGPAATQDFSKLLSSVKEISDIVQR
# ASSAY_EXPLANATION: Off-chip mobility-shift kinase assay (Caliper LABCHIP), ABL
# STATED_CONDITIONS: concentration 3.0E−10; dasatinib-corresponding compounds
PARAMETER_MEASURED: ABL AVG % Activity at 3.0E−10 (%)

{"columns": ["MOLECULE", "UNITS_OF_MEASURE", "RECORDED_VALUE"],
 "data": [
  ["COCCOCCOCCOCC(=O)NC(CC(C)C)C(=O)OCCN1CCN(c2cc(Nc3ncc(C(=O)Nc4c(C)cccc4Cl)s3)nc(C)n2)CC1 (centres unmarked)", "%", 62],
  ["COCCOCCOCCOCCOCCOCCOCCOCCOCCNC(=O)OCCN1CCN(c2cc(Nc3ncc(C(=O)Nc4c(C)cccc4Cl)s3)nc(C)n2)CC1", "%", 47],
  ["COCCOCCOCCOCCOCCOCCOCCNC(=O)OCCN1CCN(c2cc(Nc3ncc(C(=O)Nc4c(C)cccc4Cl)s3)nc(C)n2)CC1", "%", 48],
  ["COCCOCCOCCOCC(=O)NC(C(=O)OCCN1CCN(c2cc(Nc3ncc(C(=O)Nc4c(C)cccc4Cl)s3)nc(C)n2)CC1)C(C)C (centres unmarked)", "%", 54],
  ["COCCOCCOCCOCCOCCNC(=O)OCCN1CCN(c2cc(Nc3ncc(C(=O)Nc4c(C)cccc4Cl)s3)nc(C)n2)CC1", "%", 45]
]}
